Reference for the values: ChEMBL document CHEMBL4402539

test system: CAPAN-1; test: Cytotoxicity in human Capan1 cells assessed as reduction in cell viability after 18 hrs by MTT assay; format: functional, cell-based; settings: CAPAN-1, 18 h
pIC50: −log10 of the molar value.
PROPERTY MEASURED: pIC50

In: Quote pIC50 with test system CAPAN-1 for CC1(C)c2ccc([nH]2)C2(C)CCCCNC(=O)c3cccc(n3)C(=O)NCCCCC(C)(c3ccc1[nH]3)c1ccc([nH]1)C(C)(C)c1ccc2[nH]1
Out: 4.82 to 5.00

In: Please respond with reported pIC50 (system CAPAN-1) for CC1(C)c2ccc([nH]2)C2(C)CCCNC(=O)c3cccc(n3)C(=O)NCCCC(C)(c3ccc1[nH]3)c1ccc([nH]1)C(C)(C)c1ccc2[nH]1 .
Out: 4.82 to 5.00
